# Test system: Tov112D
# test: Primary qHTS to identify gynecologic anti-cancer compounds using libraries of approved drugs and bioactive compounds (AID 1345084); note: nearly all actives have a fitted effect of over 55% in size
# recorded-conditions: Gynecologic cancer cell panel viability, ATPlite luminescence, 48 h; series mostly up to 57.5 µM
Results filed as inconclusive are left out. Calls of active or inactive are those of the source. Calls come from the whole dose curve; as a rule, active = well fitted cell-killing curve with a large enough effect; inconclusive = small, poorly fitted or top-dose-only effect, or effect the other way; inactive = flat fitted curve, though single readings scatter.
Please state which outcome applies, choosing from active, inactive

Past entries and their recorded results:
INSERT INTO results (compound, group_label) VALUES
  ('CCOC(=O)c1ccc(-c2ccc(OC(=O)N(C)Cc3cccc(-c4ccncc4)c3)cc2)cc1', 'inactive'),
  ('O=C(N[C@H]1CN2CCC1CC2)c1cc2cccc(Cl)c2s1', 'inactive'),
  ('C/C=C(\C)C(O)C(C)/C=C(C)/C=C/C/C(C)=C/Cc1nc(OC)c(OC)c(O[C@@H]2O[C@@H](C)[C@H](O)[C@@H](O)[C@H]2O)c1C (some centres undefined)', 'inactive'),
  ('CN1CCc2cc3c(cc2[C@H]1[C@@H]1OC(=O)c2c1ccc1c2OCO1)OCO3', 'inactive'),
  ('C/C=C(/C)C1C=CC2CC(C)CC(C)C2C1/C(O)=C1\C(=O)NC(CC(C)(O)C(=O)O)C1=O (centres undefined)', 'inactive');

We now examine a further compound.
What outcome does the record of this test show for Cc1cccc(NC(=O)NC2N=C(c3ccccc3)c3ccccc3N(CC(=O)c3ccccc3C)C2=O)c1 (centres undefined) ?
inactive
